Target: T1, Anti-CD28 Fab (SEQ ID NOs: 696, 697)
T1 construct: In the phage ELISA the Fab was biotinylated and captured on neutravidin coated plates
T1 sequence (VH, as listed by the source, chain 1 of 2): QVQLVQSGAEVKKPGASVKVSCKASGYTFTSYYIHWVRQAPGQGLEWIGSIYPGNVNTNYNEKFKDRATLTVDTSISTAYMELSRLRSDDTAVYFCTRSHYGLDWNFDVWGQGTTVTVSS
T1 sequence (VL, as listed by the source, chain 2 of 2): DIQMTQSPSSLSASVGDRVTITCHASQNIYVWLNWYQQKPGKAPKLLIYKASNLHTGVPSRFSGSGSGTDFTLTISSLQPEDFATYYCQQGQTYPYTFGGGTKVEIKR
Experiment: phage ELISA; captured anti-CD28 Fab pre-incubated with CD28 antigen as competitor, anti-M13 HRP detection;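 note: crude clonal phage supernatants screened by ELISA, with wells pre-incubated with CD28 antigen in blocking buffer, compared against wells given blocking buffer alone as control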
Readout: Anti-CD28 Fab signal in the presence of CD28 (phage binding ELISA)
Reply briefly: the number, and no unit.

Which Anti-CD28 Fab signal in the presence of CD28 (phage binding ELISA) is listed for YCDGHIPEYMTKCL (Tested as clonal phage supernatant; not shown: pIII coat protein of the bacteriophage to which the peptide is fused) [Phage-1111 (Peptide-87 library clone, SEQ ID NO: 1427)] ? 0.06

What about YCEGHLPMYMQKCL (Tested as clonal phage supernatant; not shown: pIII coat protein of the bacteriophage to which the peptide is fused) [Phage-1110 (Peptide-87 library clone, SEQ ID NO: 1426)] ? 0.08

Now the binder YCDGHTAEFIGKCL (Tested as clonal phage supernatant; not shown: pIII coat protein of the bacteriophage to which the peptide is fused) [Phage-1106 (Peptide-87 library clone, SEQ ID NO: 1422)] 0.06

Also YCEGHSLEYMMKCV (Tested as clonal phage supernatant; not shown: pIII coat protein of the bacteriophage to which the peptide is fused) [Phage-1114 (Peptide-87 library clone, SEQ ID NO: 1430)] , if possible. 0.07

Value source: patent US20260242478A1
